Target system: full-length beta-Catenin (Uniprot ID P35222) (Homo sapiens (Human)) (UniProt P35222)
Sequence (P35222 whole entry): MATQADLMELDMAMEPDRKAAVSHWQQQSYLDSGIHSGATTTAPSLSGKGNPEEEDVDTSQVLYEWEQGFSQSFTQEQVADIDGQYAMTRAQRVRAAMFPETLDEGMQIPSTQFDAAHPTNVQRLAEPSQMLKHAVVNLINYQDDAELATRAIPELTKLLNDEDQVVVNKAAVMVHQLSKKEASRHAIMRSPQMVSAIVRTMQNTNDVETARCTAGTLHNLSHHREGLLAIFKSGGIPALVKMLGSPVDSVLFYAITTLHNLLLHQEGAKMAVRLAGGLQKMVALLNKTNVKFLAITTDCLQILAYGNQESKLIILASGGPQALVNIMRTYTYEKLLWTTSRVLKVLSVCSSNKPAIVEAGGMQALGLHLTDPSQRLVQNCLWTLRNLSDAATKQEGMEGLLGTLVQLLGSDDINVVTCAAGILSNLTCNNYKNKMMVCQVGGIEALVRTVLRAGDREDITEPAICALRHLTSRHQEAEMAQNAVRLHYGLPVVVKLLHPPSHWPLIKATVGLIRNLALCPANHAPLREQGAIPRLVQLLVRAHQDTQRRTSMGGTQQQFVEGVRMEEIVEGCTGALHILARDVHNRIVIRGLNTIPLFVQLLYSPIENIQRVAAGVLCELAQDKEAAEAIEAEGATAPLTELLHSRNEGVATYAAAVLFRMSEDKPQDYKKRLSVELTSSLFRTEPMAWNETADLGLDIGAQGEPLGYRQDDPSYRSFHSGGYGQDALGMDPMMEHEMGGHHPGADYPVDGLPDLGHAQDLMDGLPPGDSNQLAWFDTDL
Protocol notes: fluorescence polarization competition; full-length beta-catenin; competitor 5FAM-TCF4(10-53) probe
pEC50: −log10 of the molar value. Starred links: 1 amine or outer side, 2 acyl side, 3 side chain; linkers in the order of their positions; H or OH if unused. Positions of bridges follow the written chain, without caps; N, C: chain ends. Non-standard residues stand in square brackets, D forms with d. Primed or numbered codes have the meaning given here. PyrS2″ = (S)-3-amino-1-((pent-4-en-1-yloxy)carbonyl)pyrrolidine-3-carboxylic acid (stapling residue), C=CCCCOC(=O)N1CC[C@@](N[*:1])(C(=O)[*:2])C1; B5(21) = 2-amino-2-(pent-4-en-1-yl)hept-6-enoic acid, bis(4-pentenyl)glycine (stitching residue), C=CCCCC(CCCC=C)(N[*:1])C(=O)[*:2]; Phe(2-Cl) = N[C@@H](Cc1ccccc1Cl)C(=O)O; Bta = N[C@@H](Cc1csc2ccccc12)C(=O)O; αAllylPro = C=CC[C@@]1(C(=O)O)CCCN1; tBuAla = CC(C)(C)C[C@H](N)C(=O)O; 3Thi = N[C@@H](Cc1ccsc1)C(=O)O; Cha = N[C@@H](CC1CCCCC1)C(=O)O; R5 = C=CCCC[C@@](C)(N)C(=O)O; Aib = CC(C)(N)C(=O)O
Observable: pEC50

Solved entries:
Ac-[αAllylPro]D[tBuAla][B5(21)]DTAAFL[PyrS2″][Phe(2-Cl)][Bta]S-NH2 (staple 1-4, 4-11) [I-1172]; 7.35
Ac-[αAllylPro]D[Cha][B5(21)]DTAAFL[PyrS2″][3Thi][Bta]Q-NH2 (staple 1-4, 4-11) [I-1174]; 7.37

a = Ac-PD[tBuAla][R5]DDAAFN[PyrS2″][3Thi][Bta]Q-NH2 (staple 4-11) [I-1182]
b = Ac-[αAllylPro]D[tBuAla][B5(21)]DD[Aib][Aib]FL[PyrS2″][3Thi][Bta]Q-NH2 (staple 1-4, 4-11; also: earlier eluting HPLC peak (staple isomer composition)) [I-1179]
Exercise: Compare a and b and name the one whose reported pEC50 is smaller. Please respond with the label that marks your chosen entry.
Solution: b
(b: 6.46, a: 6.84)
